Origin of measurements: the supplement of paper PMC12455559

We begin with a simple list: items and their reported PET hydrolysis.
testSummary: PET hydrolysis, aromatic products released after 48 h (umol product/mg enzyme); higher = more PET depolymerization activity
reportedConditions: substrate: cryPow; 40 °C; pH 6.5

# polymerSequence, relationQualifier, PET hydrolysis
data = [
    ("APPARVAALATTAYQRGPAPTLSGVRAALGPFSYSTASVSAAATGYTFGGGTVYYPDDTSQGTFGGIAVTPGYTGTEGSIAWLGPRLASQGFVVITIATKSLYDQPTARGQQLLAALDYLKTYSPAAVRQRLDPQRLAVSGHSMGGGGALYAVWSRPSLKAAVPLAPYHTIKNWSAITVPTLIEAGTADTVTPVGTFAEPIYQSLTGASERAYAEVAGANHLTFTAENPLIGGLEVAWMKRFVDDDARYDQFLCPAPTDPGLTEYRDSCPTS [TEP101]", "=", 18.5),
    ("ADNPYQRGPDPTPALVASVNGPFATASVSVPAGYGFGGGMIYYPTDTSQGTFGGIAISPGYTALFSAELAWMGPWLASHGFVVIGIETNNRNDFDEARGTQLLAALDYLTQQSPVRNRVDPNRLAVAGHSMGGGGALNAAIRRPSLKAAVGLAPFSPSSNLANDRVPTMVFSGQQDTVVTPSYVTGLYNSLPSTTQSAYLEIAGGDHGFPVGRPNQVMIRTMLPFVKIFVDYDTRYSPFLCPLSDTSGVVTYRSTCPLTPPGLPTTPPTTPPTTVPTSPPTGGPTTPPTTPSQPGGACTATYRTVNSWPGGFQGEVTVTAGNSAINGWTVRWTLDSGQAITQVWNGEVSTSGSTVSVRNAPYNGSLPPSGSTTFGFLSSGSPSSPSLTCTSP [DP059]", "=", 21.5),
    ("GQAAVPVAVAGTSAFAKGPDPTEQSIQAQRGPFATAQRTVPSEAGRAFNRGTVHYPTDTSHGTYGAVVVSPGFFGPEFSVAWYGSTLASHGFVVLTLETNFLFDQPDARATQLLAGLDWLAARSPVKDRVDPNRLAVMGHSMGGGGTLIAASRNPALKAAIPLTPWNTSPDFSTVTVPTLVLGTDNDTVAPVARHADPMYASLRDKPDEGYVKLRGDHFTPIRYTAAATRFIVPWLKRYVDEDTRYSRFLCPLPAPDATLVSFELRCPV [DP040]", "=", 3),
    ("ADNPYERGPDPTERSIEAARGPFGVSTERVGSLGVSDFGGATIYHPTDRSQTYGAIAISPGFTAGWTSLSWLGERLASQGFVVIGIDTITRLDQPGSRGRQLLAALDYATTRSNARALIDAQRLAVAGHSMGGGGTLEAAAERPSLKAAIPLAPWNLDKSWAEVRTPTLIIGGESDNIAAVNTHSIPFYNSLSNAREKAYMEIDNGTHFFPNTANTLMAKYMISWMKRYIDDDTRYEQFLCPPPDDRGISEYRHTCPGS [DP088]", "<", 3),
    ("ASPYERGPDPTDSILEASRGPFATSQLSVSSLSVSGFGGGTVYYPTDTSQGTFGAIAISPGYTARWSSLAWLGPRIASHGFVVIGIETNTIYDQPASRGRQLLAALDYLTSSSPSTVRSRIDASRLAVAGHSMGGGGTLEAANDRPSLQAAVPLAPWNLTKIWSGVRVPTMIIGGEADTVAPVASHSEPFYQSIPSSVEKAYLELNNASHFFPQTTNTTMAKSMVAWLKRFVDDDTRYDQFLCPAPRGLAIQEYRDTCPIS [TEP144]", "<", 3),
    ("MAADNPYQRGPNPTSASVAASRGTFATAELSVPRGNGFGGGKIYYPTDTTQGTFGAIAIVPGYTATWAAEGAWMGHWLASFGFVVIGIDTNSRNDNDTARGTQLLAALDYLTQRSSVRGRVDAKRLAVMGHSMGGGGALVAARQRPSLKAAVGLAPFKPSGPPSADRVPTMVIAGQRDGTVTPSYVDGLYRAIPAGTEKAYLEFAGAGHAFPTRPNPLQMRLVIPWLKSFTDHDTRYHQFLCPLKDRTGVTAYRSTCPLVAPGARD [TEP041]", "=", 3),
]
